The following binders are listed with their measured interaction score values.
# SYSTEM_NAME: T1, P8A-bH
# T1 chain: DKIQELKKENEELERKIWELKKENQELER
# TEST_DESCRIPTION: two-hybrid library CCNG1;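 also: natural log of median RNA to DNA barcode read ratio; higher means stronger binding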
Format: numeric value only, no unit, no commentary.

Example entries and their recorded answers appear below.
- BINDER: "DENQELKKEIEELKRENWELKKKIQELER [4H1629-bH]"
  interaction score: 0.887
- BINDER: "DKIQELKKKNEELKRKNWELKKKIQELKR [P2A-bH]"
  interaction score: 0.132
- BINDER: "DENQELEKKIEELKRKNWELKKEIQELER [P5A-bH]"
  interaction score: 1.32

Return the recorded interaction score value; entry: DEIQELEKENEELERENWELEKEIQELER [P1A-bH]
-0.232

For the binder DKNQELKKENEELERKIWELKKKIQELKR [P10A-bH] , give its measured interaction score value.
-0.68

Give the reported interaction score for this binder. DKIQELKKENEELERKIWELKKENQELER [P8A-bH]
0.54

For DEIQELEKKNEELKREIWELEKKNQELKR [P7A-bH] , write its interaction score.
1.64
